This collection of values is drawn from ChEMBL document CHEMBL1126312.

assay system: Glutamate NMDA receptor
procedure summary: Binding affinity against dextromethorpin binding site associated with N-methyl-D-aspartate glutamate receptor from rat brain using [3H]1 as radioligand.
measured metric: IC50 (µM)
Give the value, in units of µM, as a plain number.

Read off the recorded IC50 for CN1CCC23CCCCC2C1Cc1ccc(OCc2ccccc2)cc13 (stereo unspecified)
3.1

* * *

assay system: Glutamate [NMDA] receptor
procedure summary: Binding affinity against dextromethorpin binding site associated with N-methyl-D-aspartate glutamate receptor from guinea pig mitochondrial pellet P2 determined using [3H]1 as radioligand.
Type: protein-complex assay, Cavia porcellus
Each record is given satisfied if its reported IC50 is strictly below 300 nM. Records at or above 300 nM are given not satisfied.

INSERT INTO measurements (molecule, category_label) VALUES
  ('CC(C)Oc1ccc2c(c1)C13CCCCC1C(C2)N(C)CC3 (stereo unspecified)', 'satisfied'),
  ('CN1CCC23CCCCC2C1Cc1ccccc13 (stereo unspecified)', 'not satisfied'),
  ('CN(C)CCCN1c2ccccc2Sc2ccc(Cl)cc21', 'not satisfied');

Consider the molecule CN1CCC23CCCCC2C1Cc1ccc(N)cc13 (stereo unspecified) . Is its IC50 strictly less than 300 nM?
not satisfied

Lab note: IC50 threshold 300 nM. Does this molecule come in strictly under it? CN1CCC23CCCCC2C1Cc1ccc(OCc2ccccc2)cc13 (stereo unspecified)
satisfied

In plain terms, does COc1ccc2c(c1)C13CCCCC1C(C2)N(C)CC3 (stereo not drawn) [RACEMETHORPHAN] come in under 300 nM for IC50?
satisfied

* * *

Catalogue of IC50 readings, one per entry.
assay system: Glutamate NMDA receptor
procedure summary: Binding affinity against dextromethorpin binding site of N-methyl-D-aspartate glutamate receptor from rat brain using [3H]1
Write the number in µM without appending the unit.

INSERT INTO results (compound, unit_info, obs_value) VALUES
  ('CN1CCC23CCCCC2C1Cc1ccc(N=C=S)cc13 (stereo not given)', 'µM', 1.5);

Give IC50 for the following compound: CN(C)c1ccc2c(c1)C13CCCCC1C(C2)N(C)CC3 (stereo not given)
4.4

Find the measured IC50 of CN1CC[C@]23CCCC[C@H]2[C@H]1Cc1ccc(O)cc13 [LEVORPHANOL] and report it.
7.7

// Input: CC(C)Oc1ccc2c(c1)C13CCCCC1C(C2)N(C)CC3 (stereo not given) . Output its IC50 only.
0.88

Write down IC50 measured for item CN1CCC23CCCCC2C1Cc1ccc(Cl)cc13 (stereo not given)
1.1

Look up and state reported IC50 for CCCCOc1ccc2c(c1)C13CCCCC1C(C2)N(C)CC3 (stereo not given)
1.5

Hello, please tell me recorded IC50 for this one: CNc1ccc2c(c1)C13CCCCC1C(C2)N(C)CC3 (stereo not given)
3.6

Look up IC50 of CN1CCC23CCCCC2C1Cc1ccccc13 (stereo not given) and report it.
1.3

Report IC50, nothing else, for this compound: CN(C)CCCN1c2ccccc2Sc2ccc(Cl)cc21 [CHLORPROMAZINE]
1.3

Give the measured IC50 for CCOc1ccc2c(c1)C13CCCCC1C(C2)N(C)CC3 (stereo not given)
0.42

* * *

assay system: Glutamate NMDA receptor (Rattus norvegicus) (UniProt P35439+Q00959+Q00960+Q00961+Q62645+Q8VHN2+Q9R1M7)
procedure summary: Binding affinity against PCP binding site associated with N-methyl-D-aspartate glutamate receptor from rat synaptic plasma membrane(SPM) determined using [3H]TCP as radioligand.
recorded conditions: concentration not given here
Attribute: inhibition
Give your result in % as a bare value.

INSERT INTO measurements (compound, unit_info, obs_value) VALUES
  ('CN1CCC23CCCCC2C1Cc1ccc(N=C=S)cc13 (centres undefined)', '%', 60),
  ('CNc1ccc2c(c1)C13CCCCC1C(C2)N(C)CC3 (centres undefined)', '%', 43),
  ('CN1CCC23CCCCC2C1Cc1ccc(OCc2ccccc2)cc13 (centres undefined)', '%', 39);

Proceeding to the next compound to report its inhibition.
Supply inhibition value. Item: CN1CCC23CCCCC2C1Cc1ccccc13 (centres undefined)
53
